Test: Plasma clearance in mouse at 2 mg/kg, po
Type: ADME, organism-based
Set-up: dose 2 mg/kg, route oral
measured.attribute: CL/F (mL/min/kg)
Give the value in mL/min/kg but do not write mL/min/kg after it.

Reported CL/F of CC(=O)N1CCN([C@H]2CCN(C(=O)N(C)[C@H](C)c3cc(C(F)(F)F)cc(C(F)(F)F)c3)[C@@H](c3ccc(F)cc3C)C2)CC1 [CASOPITANT] : 120

---

Test: Half life in dog at 0.5 mg/kg, iv
Format: ADME, organism-based, Canis lupus familiaris
Set-up: dose 0.5 mg/kg, route intravenous
Conditions: in vivo
measured.attribute: half-life
Answers without a unit are incomplete; give the number and then its unit.

Reported half-life of "CC(=O)N1CCN([C@H]2CCN(C(=O)N(C)[C@H](C)c3cc(C(F)(F)F)cc(C(F)(F)F)c3)[C@@H](c3ccc(F)cc3C)C2)CC1" : 4.5 h

---

Assay: Bioavailability in dog at 0.5 mg/kg, iv
Type: ADME, organism-based, Canis lupus familiaris
Details: in vivo
measured.attribute: bioavailability (%)
Give the value in % but do not write % after it.

Reported bioavailability of "CC(=O)N1CCN([C@H]2CCN(C(=O)N(C)[C@H](C)c3cc(C(F)(F)F)cc(C(F)(F)F)c3)[C@@H](c3ccc(F)cc3C)C2)CC1" : 34

---

Test: Plasma clearance in dog at 0.5 mg/kg, iv
Assay type: ADME, organism-based, Canis lupus familiaris
Parameters: dose 0.5 mg/kg, route intravenous
measured.attribute: clearance (mL/min/kg)
Give the value in mL/min/kg but do not write mL/min/kg after it.

Reported clearance of "CC(=O)N1CCN([C@H]2CCN(C(=O)N(C)[C@H](C)c3cc(C(F)(F)F)cc(C(F)(F)F)c3)[C@@H](c3ccc(F)cc3C)C2)CC1" : 10

---

Experiment: Binding affinity to sodium channel site 2
measured.attribute: Ki
Answers without a unit are incomplete; give the number and then its unit.

Reported Ki of "CC(=O)N1CCN([C@H]2CCN(C(=O)N(C)[C@H](C)c3cc(C(F)(F)F)cc(C(F)(F)F)c3)[C@@H](c3ccc(F)cc3C)C2)CC1" : 4.22 µM

---

Assay: Plasma clearance in cynomolgus monkey at 1 mg/kg, iv
Assay type: ADME, organism-based, Macaca fascicularis
Parameters: dose 1 mg/kg, route intravenous
measured.attribute: clearance (mL/min/kg)
Give the value in mL/min/kg but do not write mL/min/kg after it.

Reported clearance of "CC(=O)N1CCN([C@H]2CCN(C(=O)N(C)[C@H](C)c3cc(C(F)(F)F)cc(C(F)(F)F)c3)[C@@H](c3ccc(F)cc3C)C2)CC1" : 26

---

Test: Volume of distribution at steady state in dog at 0.5 mg/kg, iv
Format: ADME, organism-based, Canis lupus familiaris
Parameters: dose 0.5 mg/kg, route intravenous
Conditions: in vivo, read-out: Vdss
measured.attribute: Vd
Answers without a unit are incomplete; give the number and then its unit.

Reported Vd of "CC(=O)N1CCN([C@H]2CCN(C(=O)N(C)[C@H](C)c3cc(C(F)(F)F)cc(C(F)(F)F)c3)[C@@H](c3ccc(F)cc3C)C2)CC1" : 1.9 L/kg

---

Experiment: Half life in marmoset at 1 mg/kg, iv
Type: ADME, organism-based, Callithrix jacchus
Set-up: dose 1 mg/kg, route intravenous
Conditions: in vivo
measured.attribute: half-life (h)
Give the value in h but do not write h after it.

Reported half-life of "CC(=O)N1CCN([C@H]2CCN(C(=O)N(C)[C@H](C)c3cc(C(F)(F)F)cc(C(F)(F)F)c3)[C@@H](c3ccc(F)cc3C)C2)CC1" : 1.7

---

Experiment: Half life in rat at 1 mg/kg, iv and po
Type: ADME, organism-based
Parameters: dose 1 mg/kg, route oral
Conditions: in vivo
measured.attribute: half-life (h)
Give the value in h but do not write h after it.

Reported half-life of "CC(=O)N1CCN([C@H]2CCN(C(=O)N(C)[C@H](C)c3cc(C(F)(F)F)cc(C(F)(F)F)c3)[C@@H](c3ccc(F)cc3C)C2)CC1" : 1.8

---

Assay: Bioavailability in cynomolgus monkey at 1 mg/kg, iv
Assay type: ADME, organism-based, Macaca fascicularis
Details: in vivo
measured.attribute: bioavailability (%)
Give the value in % but do not write % after it.

Reported bioavailability of CC(=O)N1CCN([C@H]2CCN(C(=O)N(C)[C@H](C)c3cc(C(F)(F)F)cc(C(F)(F)F)c3)[C@@H](c3ccc(F)cc3C)C2)CC1 [CASOPITANT] : 8

---

Assay: Plasma clearance in marmoset at 1 mg/kg, iv
Assay type: ADME, organism-based, Callithrix jacchus
Design: dose 1 mg/kg, route intravenous
measured.attribute: clearance (mL/min/kg)
Give the value in mL/min/kg but do not write mL/min/kg after it.

Reported clearance of "CC(=O)N1CCN([C@H]2CCN(C(=O)N(C)[C@H](C)c3cc(C(F)(F)F)cc(C(F)(F)F)c3)[C@@H](c3ccc(F)cc3C)C2)CC1" : 29

---

Test: Volume of distribution at steady state in cynomolgus monkey at 1 mg/kg, iv
Assay type: ADME, organism-based, Macaca fascicularis
Parameters: dose 1 mg/kg, route intravenous
Conditions: in vivo, read-out: Vdss
measured.attribute: Vd (L/kg)
Give the value in L/kg but do not write L/kg after it.

Reported Vd of "CC(=O)N1CCN([C@H]2CCN(C(=O)N(C)[C@H](C)c3cc(C(F)(F)F)cc(C(F)(F)F)c3)[C@@H](c3ccc(F)cc3C)C2)CC1" : 3

---

Test: Volume of distribution at steady state in marmoset at 1 mg/kg, iv
Format: ADME, organism-based, Callithrix jacchus
Design: dose 1 mg/kg, route intravenous
Details: in vivo, read-out: Vdss
measured.attribute: Vd (L/kg)
Give the value in L/kg but do not write L/kg after it.

Reported Vd of CC(=O)N1CCN([C@H]2CCN(C(=O)N(C)[C@H](C)c3cc(C(F)(F)F)cc(C(F)(F)F)c3)[C@@H](c3ccc(F)cc3C)C2)CC1 [CASOPITANT] : 3.1

---

Experiment: Half life in mouse at 2 mg/kg, po
Type: ADME, organism-based
Set-up: dose 2 mg/kg, route oral
Details: in vivo
measured.attribute: half-life (h)
Give the value in h but do not write h after it.

Reported half-life of CC(=O)N1CCN([C@H]2CCN(C(=O)N(C)[C@H](C)c3cc(C(F)(F)F)cc(C(F)(F)F)c3)[C@@H](c3ccc(F)cc3C)C2)CC1 [CASOPITANT] : 1.1

---

Assay: Binding affinity to calcium channel L type benzodiazepine binding site
measured.attribute: Ki (µM)
Give the value in µM but do not write µM after it.

Reported Ki of CC(=O)N1CCN([C@H]2CCN(C(=O)N(C)[C@H](C)c3cc(C(F)(F)F)cc(C(F)(F)F)c3)[C@@H](c3ccc(F)cc3C)C2)CC1 [CASOPITANT] : 8.78

---

Test: Half life […] cynomolgus monkey at 1 mg/kg, iv
Format: ADME, organism-based, Macaca fascicularis
Set-up: dose 1 mg/kg, route intravenous
Conditions: in vivo
measured.attribute: half-life
Answers without a unit are incomplete; give the number and then its unit.

Reported half-life of "CC(=O)N1CCN([C@H]2CCN(C(=O)N(C)[C@H](C)c3cc(C(F)(F)F)cc(C(F)(F)F)c3)[C@@H](c3ccc(F)cc3C)C2)CC1" : 2.1 h
